targetDesc: GST-YTHDF2 (Homo sapiens)
Construct: made in house
Sequence (Q9Y5A9 whole entry): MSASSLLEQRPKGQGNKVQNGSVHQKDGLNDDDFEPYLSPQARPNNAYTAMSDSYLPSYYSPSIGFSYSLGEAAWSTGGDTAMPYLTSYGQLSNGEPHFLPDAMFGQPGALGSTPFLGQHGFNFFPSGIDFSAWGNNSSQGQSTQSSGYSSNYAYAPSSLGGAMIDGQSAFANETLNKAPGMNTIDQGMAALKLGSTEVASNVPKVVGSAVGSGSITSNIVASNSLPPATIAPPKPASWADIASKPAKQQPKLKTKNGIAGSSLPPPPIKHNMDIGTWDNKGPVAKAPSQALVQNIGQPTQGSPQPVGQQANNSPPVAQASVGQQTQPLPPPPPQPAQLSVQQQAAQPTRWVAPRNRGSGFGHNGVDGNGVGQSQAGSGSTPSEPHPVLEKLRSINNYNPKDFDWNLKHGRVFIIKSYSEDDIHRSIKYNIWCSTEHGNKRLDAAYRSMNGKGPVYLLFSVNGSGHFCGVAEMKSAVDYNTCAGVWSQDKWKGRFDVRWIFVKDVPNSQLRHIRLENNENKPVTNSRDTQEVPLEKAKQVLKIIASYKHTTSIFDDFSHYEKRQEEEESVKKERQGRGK
testProtocol: HTRF-based binding assay, competition with m6A-oligoRNA, DF2
experimentalSetup: HTRF, 1 mM compound, relative to control; average of two technical replicates; * = interference with the assay
# Residual signal at 1 mM concentration per record follows

{"compound": "N#Cc1c(C2CC2)n[nH]c1N", "quantityUnit": "%", "modifierSign": ">", "Residual signal at 1 mM concentration": 90}
{"compound": "CC1CCc2c(sc3[nH]c(=S)[nH]c(=O)c23)C1 (centres unmarked)", "quantityUnit": "%", "modifierSign": "=", "Residual signal at 1 mM concentration": 24}
{"compound": "O=C(Nc1nnc[nH]1)C1CC1", "quantityUnit": "%", "modifierSign": ">", "Residual signal at 1 mM concentration": 90}
{"compound": "Cc1cc(O)c2[nH]ncc2n1", "quantityUnit": "%", "modifierSign": "=", "Residual signal at 1 mM concentration": 62}
{"compound": "CC(=O)Nc1nnc(C=Cc2cccc([N+](=O)[O-])c2)s1 (mixture of isomers)", "quantityUnit": "%", "modifierSign": "=", "Residual signal at 1 mM concentration": 77}
{"compound": "FC(F)(F)c1cc(-c2ccc3ccccc3c2)n[nH]1", "quantityUnit": "%", "modifierSign": ">", "Residual signal at 1 mM concentration": 90}
{"compound": "COc1cc2[nH]c(=O)[nH]c(=O)c2cc1OC", "quantityUnit": "%", "modifierSign": "=", "Residual signal at 1 mM concentration": 60}
{"compound": "COC(=O)CNC(=O)COc1c[nH]c(C)cc1=O", "quantityUnit": "%", "modifierSign": "=", "Residual signal at 1 mM concentration": 75}
{"compound": "Oc1ccnc(OC(F)F)c1", "quantityUnit": "%", "modifierSign": "=", "Residual signal at 1 mM concentration": 87}
{"compound": "Cc1cc(O)c(OCC(=O)N=c2[nH]cc(C)s2)cn1", "quantityUnit": "%", "modifierSign": "=", "Residual signal at 1 mM concentration": 60}
{"compound": "Cc1cc2c(=O)n(C3CC3)c(=S)[nH]c2s1", "quantityUnit": "%", "modifierSign": "=", "Residual signal at 1 mM concentration": 23}
{"compound": "Cc1nc(O)c2sccc2n1", "quantityUnit": "%", "modifierSign": ">", "Residual signal at 1 mM concentration": 90}
{"compound": "O=C1CC(=O)NC(=S)N1", "quantityUnit": "%", "modifierSign": "=", "Residual signal at 1 mM concentration": 79}
{"compound": "CCOC(=O)c1noc(C)n1", "quantityUnit": "%", "modifierSign": ">", "Residual signal at 1 mM concentration": 90}
